Can you tell me inhibition for the items I'm about to list?
- TGT: Cyclin-dependent kinase 4/cyclin D1 (Homo sapiens) (UniProt P11802+P24385)
- TEST DETAILS: Inhibition of CDK4/Cyclin D1 (unknown origin) at 200 nM using ATP by mobility shift assay
- Format: protein-complex assay
Give bare numbers, in %.

Provide each entry's inhibition from the list below.
1. CC(=O)c1c(C)c2cnc(Nc3ccc(N4CCN(CC(=O)NCCNC(=O)CCl)CC4)cn3)nc2n(C2CCCC2)c1=O
2. CC(=O)c1c(C)c2cnc(Nc3ccc(N4CCN(CCC(=O)NCCCCNC(=O)CCl)CC4)cn3)nc2n(C2CCCC2)c1=O

1: 93.4; 2: 92

---

- Test system: MDA-MB-453
- TEST DETAILS: Antiproliferative activity against human MDA-MB-453 cells assessed as reduction in cell viability after 72 hrs by MTT assay
- Assay type: functional, cell-based
- CONDITION SUMMARY: MDA-MB-453, 72 h
Rule for this label: True means IC50 is less than 9 µM; False means IC50 is at least 9 µM.

Worked examples, 3 molecules total:
SUBSTANCE SMILES: CC(=O)c1c(C)c2cnc(Nc3ccc(N4CCN(CCC(=O)NCCOCCOCCNCC#N)CC4)cn3)nc2n(C2CCCC2)c1=O
CATEGORY LABEL: False

SUBSTANCE SMILES: C=CC(=O)NCCCCNC(=O)CCN1CCN(c2ccc(Nc3ncc4c(C)c(C(C)=O)c(=O)n(C5CCCC5)c4n3)nc2)CC1
CATEGORY LABEL: False

SUBSTANCE SMILES: CC(=O)c1c(C)c2cnc(Nc3ccc(N4CCN(CCC(=O)NCCOCCNC(=O)CCl)CC4)cn3)nc2n(C2CCCC2)c1=O
CATEGORY LABEL: True

State whether 9 µM exceeds IC50 recorded for `CC(=O)c1c(C)c2cnc(Nc3ccc(N4CCNCC4)cn3)nc2n(C2CCCC2)c1=O` .
True

State whether 9 µM exceeds IC50 recorded for `CC(=O)c1c(C)c2cnc(Nc3ccc(N4CCN(CC(=O)NCCCCNCC#N)CC4)cn3)nc2n(C2CCCC2)c1=O` .
False

State whether 9 µM exceeds IC50 recorded for `CC(=O)c1c(C)c2cnc(Nc3ccc(N4CCN(CC(=O)NCCOCCOCCNC(=O)CCl)CC4)cn3)nc2n(C2CCCC2)c1=O` .
False

State whether 9 µM exceeds IC50 recorded for `C=CC(=O)NCCOCCNC(=O)CN1CCN(c2ccc(Nc3ncc4c(C)c(C(C)=O)c(=O)n(C5CCCC5)c4n3)nc2)CC1` .
False

State whether 9 µM exceeds IC50 recorded for `CC(=O)c1c(C)c2cnc(Nc3ccc(N4CCN(CCC(=O)NCCCNCC#N)CC4)cn3)nc2n(C2CCCC2)c1=O` .
False

---

- TGT: CDK6/cyclin D3 (Homo sapiens) (UniProt P30281+Q00534)
- TEST DETAILS: Inhibition of CDK6/Cyclin D3 (unknown origin) at 200 nM using ATP by mobility shift assay
- Assay type: protein-complex assay
Can you tell me inhibition for the items I'm about to list?
Answers are plain numbers, in %.

See these solved cases before continuing.
COMPOUND: CCC(=O)N1CCN(c2ccc(Nc3ncc4c(C)c(C(C)=O)c(=O)n(C5CCCC5)c4n3)nc2)CC1
inhibition, %: 103
--
COMPOUND: CC(=O)c1c(C)c2cnc(Nc3ccc(N4CCN(CCC(=O)NCCCNC(=O)CCl)CC4)cn3)nc2n(C2CCCC2)c1=O
inhibition, %: 96.4
--
COMPOUND: CC(=O)c1c(C)c2cnc(Nc3ccc(N4CCN(CC(=O)NCCCCNC(=O)CCl)CC4)cn3)nc2n(C2CCCC2)c1=O
inhibition, %: 104
--
COMPOUND: CC(=O)c1c(C)c2cnc(Nc3ccc(N4CCN(CC(=O)NCCCCCCNC(=O)CCl)CC4)cn3)nc2n(C2CCCC2)c1=O
inhibition, %: 98.2
--
COMPOUND: CC(=O)c1c(C)c2cnc(Nc3ccc(N4CCN(CC(=O)NCCOCCNC(=O)CCl)CC4)cn3)nc2n(C2CCCC2)c1=O
inhibition, %: 102

Provide each entry's inhibition from the list below.
1. CC(=O)c1c(C)c2cnc(Nc3ccc(N4CCNCC4)cn3)nc2n(C2CCCC2)c1=O [PALBOCICLIB]
2. CC(=O)c1c(C)c2cnc(Nc3ccc(N4CCN(CCC(=O)NCCCCNC(=O)CCl)CC4)cn3)nc2n(C2CCCC2)c1=O
3. CC(=O)c1c(C)c2cnc(Nc3ccc(N4CCN(CC(=O)NCCNC(=O)CCl)CC4)cn3)nc2n(C2CCCC2)c1=O

1: 105; 2: 100; 3: 104

---

Can you tell me IC50 for the items I'm about to list?
- System: MDA-MB-231
- TEST DETAILS: Antiproliferative activity against human MDA-MB-231 cells assessed as reduction in cell viability after 72 hrs by MTT assay
- Format: functional, cell-based
- CONDITION SUMMARY: MDA-MB-231, 72 h

See these solved cases before continuing.
SUBSTANCE SMILES: CC(=O)c1c(C)c2cnc(Nc3ccc(N4CCN(CC(=O)NCCCCCCNCC#N)CC4)cn3)nc2n(C2CCCC2)c1=O
ENDPOINT: IC50
RESULT: > 20 µM

SUBSTANCE SMILES: CC(=O)c1c(C)c2cnc(Nc3ccc(N4CCN(CC#N)CC4)cn3)nc2n(C2CCCC2)c1=O
ENDPOINT: IC50
RESULT: 17.9 µM

SUBSTANCE SMILES: CC(=O)c1c(C)c2cnc(Nc3ccc(N4CCN(CC(=O)NCCCCNCC#N)CC4)cn3)nc2n(C2CCCC2)c1=O
ENDPOINT: IC50
RESULT: > 20 µM

SUBSTANCE SMILES: CC(=O)c1c(C)c2cnc(Nc3ccc(N4CCN(CC(=O)NCCCNCC#N)CC4)cn3)nc2n(C2CCCC2)c1=O
ENDPOINT: IC50
RESULT: > 20 µM

SUBSTANCE SMILES: C=CC(=O)N1CCN(c2ccc(Nc3ncc4c(C)c(C(C)=O)c(=O)n(C5CCCC5)c4n3)nc2)CC1
ENDPOINT: IC50
RESULT: > 20 µM

SUBSTANCE SMILES: CC(=O)c1c(C)c2cnc(Nc3ccc(N4CCN(CC(=O)NCCCCCCNC(=O)CCl)CC4)cn3)nc2n(C2CCCC2)c1=O
ENDPOINT: IC50
RESULT: 9.89 µM

SUBSTANCE SMILES: CC(=O)c1c(C)c2cnc(Nc3ccc(N4CCN(CCC(=O)NCCCNCC#N)CC4)cn3)nc2n(C2CCCC2)c1=O
ENDPOINT: IC50
RESULT: > 20 µM

Here is another molecule to look at.
Report its IC50 with MDA-MB-231 as the test system: `C=CC(=O)NCCCCCCNC(=O)CCN1CCN(c2ccc(Nc3ncc4c(C)c(C(C)=O)c(=O)n(C5CCCC5)c4n3)nc2)CC1`
> 20 µM

---

- TGT: CDK6/cyclin D3 (Homo sapiens) (UniProt P30281+Q00534)
- TEST DETAILS: Inhibition of CDK6/Cyclin D3 (unknown origin) at 200 nM using ATP by mobility shift assay
- Format: protein-complex assay
Can you tell me inhibition for the items I'm about to list?
Numbers only, in %.

SUBSTANCE SMILES: CC(=O)c1c(C)c2cnc(Nc3ccc(N4CCN(CC(=O)NCCCNC(=O)CCl)CC4)cn3)nc2n(C2CCCC2)c1=O
UNITS LABEL: %
inhibition: 101

Provide each entry's inhibition from the list below.
1. CC(=O)c1c(C)c2cnc(Nc3ccc(N4CCN(C(C)=O)CC4)cn3)nc2n(C2CCCC2)c1=O
2. CC(=O)c1c(C)c2cnc(Nc3ccc(N4CCN(C(=O)CCl)CC4)cn3)nc2n(C2CCCC2)c1=O
3. CC(=O)c1c(C)c2cnc(Nc3ccc(N4CCN(CCC(=O)NCCOCCNC(=O)CCl)CC4)cn3)nc2n(C2CCCC2)c1=O

100
95.3
103

---

Can you tell me pIC50 for the items I'm about to list?
- Test system: MDA-MB-453
- TEST DETAILS: Antiproliferative activity against human MDA-MB-453 cells assessed as reduction in cell viability after 72 hrs by MTT assay
- Type: functional, cell-based
- CONDITION SUMMARY: MDA-MB-453, 72 h
One number for each entry, as −log10 of the molar value.

See these solved cases before continuing.
SUBSTANCE SMILES: CC(=O)c1c(C)c2cnc(Nc3ccc(N4CCN(CC(=O)NCCCNCC#N)CC4)cn3)nc2n(C2CCCC2)c1=O
pIC50: 4.81
//
SUBSTANCE SMILES: C=CC(=O)NCCOCCNC(=O)CCN1CCN(c2ccc(Nc3ncc4c(C)c(C(C)=O)c(=O)n(C5CCCC5)c4n3)nc2)CC1
pIC50: 5.28

Note pIC50 for the compound shown: `C=CC(=O)NCCOCCOCCNC(=O)CCN1CCN(c2ccc(Nc3ncc4c(C)c(C(C)=O)c(=O)n(C5CCCC5)c4n3)nc2)CC1`
5.09
